Test system: VEGF-121 (Homo sapiens), P15692-9
Sequence: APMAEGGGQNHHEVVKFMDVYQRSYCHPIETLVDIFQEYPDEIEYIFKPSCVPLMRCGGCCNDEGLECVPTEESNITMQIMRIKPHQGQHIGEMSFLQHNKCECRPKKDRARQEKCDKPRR
Assay: competition
Settings: Nap-dU, 2'-OMe; head-to-tail dimer, no linker; VEGF isoform not given
quantity: pKi
Numbers only, as −log10 of the molar value.

Inquiry: Identify pKi associated with the sequence CCGTTCAAGTGCTTGTAGGATTTAAATGGCCGTTCAAGTGCTTGTAGGATTTAAATGG [4867-31_395]
Reply text: 11.17
